The origin of these recorded values is ChEMBL document CHEMBL1153054.

# protocol_notes: Inhibition of Mycobacterium tuberculosis glutamine synthetase
# measurement_setup: read-out: IC50
pIC50: −log10 of the molar value.
outcome_measure: pIC50

// solved cases for pIC50 follow
| structure | pIC50 |
| --- | --- |
| COc1ccc(-c2nc3c(Br)cccn3c2NC2CCCC2)cc1O | 4.67 |
| Oc1cccc(-c2nc3ccc(Br)cn3c2NC2CCCC2)c1Cl | < 4.30 |
| O=[N+]([O-])c1ccc(-c2nc3ccc(Br)cn3c2NC2CCCC2)cc1O | < 4.30 |
| COc1ccc(-c2nc3ccccn3c2NC2CCCC2)cc1O | < 4.30 |
| COc1cccc(-c2nc3ccc(Br)cn3c2NC2CCCC2)c1 | < 4.30 |

// switching to the query compound
Record summary for `COc1ccc(-c2nc3ccc(Br)cn3c2NC2CCCC2)cc1O` : reported pIC50 = 5.06
